Tested on: Enterovirus
Assay: Inhibitory concentration measured against Rhinovirus serotype 3
Assay type: functional, organism-based
QUANTITY KIND: IC50 (µM)

P: CN(C)c1nc(Cl)nc2c1ncn2Cc1ccc(Cl)cc1
Q: Cc1ccc(Cn2cnc3c(N(C)C)nc(Cl)nc32)cc1
Data request: // which entry has the larger IC50 value, P or Q ? When you have decided, please share the label of that item.
Data returned: Q

I: CCc1ccc(Cn2cnc3c(N(C)C)nc(Cl)nc32)cc1
II: CC(C)c1ccc(Cn2cnc3c(N(C)C)nc(Cl)nc32)cc1
Data request: Min IC50? I | II Use the label to indicate which entry you chose.
Data returned: I
(I: 4 µM, II: 7 µM)

----------
Test system: Enterovirus
Assay: Inhibitory concentration measured against Rhinovirus serotype 5
Type: functional, organism-based
QUANTITY KIND: IC50 (µM)

CC(C)c1ccc(Cn2cnc3c(N(C)C)nc(Cl)nc32)cc1
8
CN(C)c1nc(Cl)nc2c1ncn2Cc1ccc(Cl)cc1
5.2
CCc1ccc(Cn2cnc3c(N(C)C)nc(Cl)nc32)cc1
5.6
Cc1ccc(Cn2cnc3c(N(C)C)nc(Cl)nc32)cc1
6.2

----------
System: Enterovirus
Assay: Inhibitory concentration measured against Rhinovirus serotype 30
Type: functional, organism-based
QUANTITY KIND: IC50 (µM)

1: CCc1ccc(Cn2cnc3c(N(C)C)nc(Cl)nc32)cc1
2: CC(C)c1ccc(Cn2cnc3c(N(C)C)nc(Cl)nc32)cc1
Data request: From the items above, decide which of 1 and 2 has the lower IC50 reading. Lab log: write the label of the selected item as the result.
Data returned: 1
(1: 4 µM, 2: 8 µM)

----------
System: Enterovirus
Assay: Inhibitory concentration measured against Rhinovirus serotype 9
Assay type: functional, organism-based
pIC50: −log10 of the molar value.
QUANTITY KIND: pIC50

Cc1ccc(Cn2cnc3c(N(C)C)nc(Cl)nc32)cc1
5.70

A: CCc1ccc(Cn2cnc3c(N(C)C)nc(Cl)nc32)cc1
B: CN(C)c1nc(Cl)nc2c1ncn2Cc1ccc(Cl)cc1
Data request: Looking at A and B , which one comes out lower in pIC50 terms? Bench note: the answer is the label of the chosen record.
Data returned: B

From: ChEMBL document CHEMBL1124250
